measured_on: T1, SARS-CoV-2 S1 (40591-V08H3, Sino Biological) (SARS-CoV-2, UniProt P0DTC2 16-685)
T1 construct: domain: S1
method_summary: ELISA, hmAb at 10 and 1 ug/ml in duplicate; AUC
Measured Binding AUC values are reported for all entries that follow.

| binder | Binding AUC |
| --- | --- |
| 1250D2 (antibody, V domains shown, Recombinant human IgG1) VH: QVQLVQSGAEVKKPGASMKVSCKASGFTFSDYYMHWVRQAPRQGLEWMGLINPSGSGTAYAQNFQGRVTLTRDTSTSTLYMEMGSLTSDDTAVYYCARMDSSGSYDHWGQGTLVTVSS VL: EIVLTQSPGTLSLSPGDRATLSCRASQTIRISYLAWYQQKPGQAPRLLVYGPSIRATGIPDRFSASGSGTDFTLTISRLEPEDFAVYYCQHYGSSPPRYTFGQGTKLEIK | 1.7 |
| 1242G6 (antibody, V domains shown, Recombinant human IgG1) VH: QVQLVQSGGGVVQPGTSVRLSCAASGFTFSDHGMHWVRQAPGKGLEWVAVISFEGRNKFFADSVKGRSTISRDNSKNTVSMQVDNVRPEDTAVYYCAREHFDGSGSDYIGTRFFDYWGRGALVTVSS VL: DIQLTQSPSFLSASVGDRVTITCRASQGISHYLTWYQQKPGKAPKLLIYRTSTLQSGVPSRFSGSGSGTVFTLTISSLQPEDLATYYCQHLDNFPTITFGQGTRLDLK | 3.8 |
